These measurements were taken from the NIST ThermoML archive (doi:10.1021/je700190m).

test: wn = mass fraction of the nth substance listed; details: 310 K; 101.3 kPa; Liquid; Concentric cylinders viscometry; w1 = 0.1

compound: O=C[C@H](O)[C@@H](O)[C@H](O[C@@H]1O[C@H](CO)[C@H](O)[C@H](O)[C@H]1O)[C@H](O)CO [4-O-β-D-galactopyranosyl-D-glucose] + O
viscosity [mPa·s]: 1.16
//
compound: OC[C@@H](O)[C@@H](O[C@H]1O[C@H](CO)[C@@H](O)[C@H](O)[C@H]1O)[C@H](O)[C@@H](O)CO [4-O-α-D-glucopyranosyl-D-glucitol] + O
viscosity [mPa·s]: 1.08
//
compound: OC[C@H]1O[C@@](CO)(O[C@H]2O[C@H](CO)[C@@H](O)[C@H](O)[C@H]2O)[C@@H](O)[C@@H]1O [D-sucrose] + O
viscosity [mPa·s]: 1.06
//
compound: O.O.OC[C@H]1O[C@H](O[C@H]2O[C@H](CO)[C@@H](O)[C@H](O)[C@H]2O)[C@H](O)[C@@H](O)[C@@H]1O [D-(+)-trehalose dihydrate] + O
viscosity [mPa·s]: 1.1
//
compound: O=C[C@H](O)[C@@H](O)[C@H](O)[C@H](O)CO [D-glucose] + O
viscosity [mPa·s]: 1
//
compound: OC[C@@H](O)[C@@H](O)[C@H](O)[C@H](O)CO [mannitol] + O
viscosity [mPa·s]: 1.03
